Consider the following sequences; for each one, report its phosphorylation enrichment.
Biological target: Fyn (UniProt P06241)
Sequence (P06241 whole entry, looked up): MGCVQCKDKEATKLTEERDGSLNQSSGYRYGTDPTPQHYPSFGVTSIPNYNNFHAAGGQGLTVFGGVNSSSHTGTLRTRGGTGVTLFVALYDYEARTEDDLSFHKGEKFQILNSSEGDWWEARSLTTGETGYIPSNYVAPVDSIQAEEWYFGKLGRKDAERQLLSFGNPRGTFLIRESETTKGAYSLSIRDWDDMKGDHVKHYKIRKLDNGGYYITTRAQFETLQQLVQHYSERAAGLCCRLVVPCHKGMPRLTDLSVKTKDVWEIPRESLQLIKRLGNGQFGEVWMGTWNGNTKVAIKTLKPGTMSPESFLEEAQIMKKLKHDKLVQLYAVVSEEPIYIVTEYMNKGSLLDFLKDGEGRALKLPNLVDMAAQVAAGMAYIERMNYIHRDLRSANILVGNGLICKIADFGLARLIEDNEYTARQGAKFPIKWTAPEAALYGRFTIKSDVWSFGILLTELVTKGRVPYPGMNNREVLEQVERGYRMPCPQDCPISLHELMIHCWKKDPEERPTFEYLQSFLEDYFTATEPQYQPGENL
Assay: phosphorylation enrichment, bacterial display (enrichment ratio); higher = better substrate or ligand; peptides without Tyr show the background;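 further: 11-residue human phosphosite peptides and single-mutation variants displayed on the E. coli surface, counted by deep sequencing, each peptide's frequency after selection divided by its frequency in the unselected input library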;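 further: frequency after pTyr selection over input frequency; kinase dosed for 20-30% of maximal phosphorylation in three min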
Answers are plain numbers.

Examples with answers:
PLDGEYVTLQI [TP53_Y327_F328V]: 0.984
PLLEYYWDIFT [CDAN1_Y713_R714W]: 1.32
EQSGSYIWVPA [DLG1_Y895]: 0.471
ADEEEYEIIAA [FEStide_E_2014]: 0.619
DLNATYCTIQG [U2SURP_Y634_R635C]: 9.64
PAEPRYRARQR [KCNJ11_Y26]: 0.746
YHLLPYTVRAM [PARS2_Y93]: 3.04

# ---- query sequence ----
Prompt: Output measured phosphorylation enrichment for this item: ARSHIYTFASC [MEFV_Y741]
Completion: 1.41

Cited source: the supplement of paper PMC10065799
